Target: Protein farnesyltransferase (Homo sapiens, UniProt P49354+P49356)
Experiment: Inhibition of Farnesyltransferase
measuredEndpoint: IC50 (µM)
Response body: numeric value in µM, unit text excluded.

Exercise: Entry CC(=O)Oc1cc(C=O)cc(C(=O)c2cccc(OC(C)=O)c2OC(C)=O)c1C=O has what IC50?
Key: 2.4

Exercise: Entry O=Cc1cc(O)c(C=O)c(C(=O)c2cccc(O)c2O)c1 has what IC50?
Key: 3.5

====

Listed below: IC50 values for each entry.
Assay: Inhibition of Geranylgeranyl transferase type I
Design: species or system Homo sapiens
Response body: numeric value in µM, unit text excluded.

>>> print(df.to_string())
                                structure  measuredendpoint  resultnumber
0  O=Cc1cc(O)c(C=O)c(C(=O)c2cccc(O)c2O)c1              IC50            70

Exercise: Entry CC(=O)Oc1cc(C=O)cc(C(=O)c2cccc(OC(C)=O)c2OC(C)=O)c1C=O has what IC50?
Key: 85
